EXPERIMENTAL_SYSTEM: Wee1 protein (Homo sapiens)
Construct: purchased Thermo Fisher PR7373A
Sequence (P30291 whole entry): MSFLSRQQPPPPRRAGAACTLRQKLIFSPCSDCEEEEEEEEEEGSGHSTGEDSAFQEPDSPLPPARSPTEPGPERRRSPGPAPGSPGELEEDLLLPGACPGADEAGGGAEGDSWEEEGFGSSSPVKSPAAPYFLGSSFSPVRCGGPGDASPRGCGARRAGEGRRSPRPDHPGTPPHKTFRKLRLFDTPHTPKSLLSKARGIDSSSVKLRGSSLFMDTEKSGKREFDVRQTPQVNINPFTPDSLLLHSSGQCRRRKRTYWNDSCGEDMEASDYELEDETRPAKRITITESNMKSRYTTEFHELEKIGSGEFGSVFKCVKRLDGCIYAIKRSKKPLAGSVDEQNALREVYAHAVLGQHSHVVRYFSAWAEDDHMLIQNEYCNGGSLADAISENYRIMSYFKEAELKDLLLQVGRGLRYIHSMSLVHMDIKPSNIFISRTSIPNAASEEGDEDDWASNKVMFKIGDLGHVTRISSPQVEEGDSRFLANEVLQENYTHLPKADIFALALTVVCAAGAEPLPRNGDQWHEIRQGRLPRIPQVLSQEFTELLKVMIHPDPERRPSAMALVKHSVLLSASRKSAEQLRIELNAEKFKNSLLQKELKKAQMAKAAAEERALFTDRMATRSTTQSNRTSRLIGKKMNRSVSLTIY
PROCEDURE_DETAILS: Binding of compound to Wee1 protein and Tracer 178 by TR-FRET (Wee1 kinase inhibitory activity)
MEASUREMENT_CONTEXT: 15 nM WEE1, 50 nM Tracer 178, read-out: IC50 (inhibitory activity against Wee1 kinase)
pIC50: −log10 of the molar value.
TEST_READOUT: pIC50

The examples below pair each entry with its known result.
> print(dat)
                                   compound  value.reported
1  C=CCn1c(=O)c2cnc(Nc3ccc(C(=O)N(C)C4CN5CCC4CC5)cc3)nc2n1-c1cccc(C(C)(C)O)n1 (stereo not shown)    8.00 to 8.30
2  C=CCn1c(=O)c2cnc(Nc3ccc(N4CC5CC(C4)N5C)cc3)nc2n1-c1cccc(C(C)(C)OC)n1    8.00 to 8.30
3  C=CCn1c(=O)c2cnc(Nc3cc(F)c(N4CC5CC(C4)N5C)c(F)c3)nc2n1-c1cccc(C(C)(C)O)n1    7.00 to 8.00

Consider the additional compound presented here.
INPUT: Find the measured pIC50 of C=CCn1c(=O)c2cnc(Nc3ccc(N4CC5CC(C4)N5CCOC)cc3)nc2n1-c1cccc(C(C)(C)O)n1 and report it.
OUTPUT: 8.00 to 8.30

====

PROCEDURE_DETAILS: Liver microsomes in vitro stability (mouse)
Format: in vitro ADME
MEASUREMENT_CONTEXT: read-out: T1/2/min
Reported half-life at 1 µM values for the following molecules.
Entry rule: numbers only, all in min.

> print(dat)
                                   molecule  unit  value.reported
1  C=CCn1c(=O)c2cnc(Nc3ccc(N4CC5CC(CN(C)C5)C4)cc3)nc2n1-c1cccc(C(C)(C)O)n1   min            38.7
2  C=CCn1c(=O)c2cnc(Nc3ccc(N4C5CCC4CN(C)C5)cc3)nc2n1-c1cccc(C(C)(C)O)n1   min            14.1
3  C=CCn1c(=O)c2cnc(Nc3ccc(CC4C(=O)C5CCN4CC5)cc3)nc2n1-c1cccc(N=S(C)(C)=O)n1 (stereo not shown)   min            5.72

Consider the additional molecule presented here.
INPUT: Find the measured half-life at 1 µM of C=CCn1c(=O)c2cnc(Nc3ccc(OC4CN5CCC4CC5)cc3)nc2n1-c1cccc(C(C)(C)O)n1 (stereo not shown) and report it.
OUTPUT: 10.1

====

Test system: MIA PaCa2 cells
PROCEDURE_DETAILS: Anti-proliferative effect on MIA PaCa2 cells by Cell Titer-Glo
Format: cell-based
MEASUREMENT_CONTEXT: Homo sapiens, MIA PaCa-2, 72 h, 3 days, read-out: MIA PaCa 2 (IC50, inhibition of proliferation in vitro)
pIC50: −log10 of the molar value.
TEST_READOUT: pIC50

The examples below pair each entry with its known result.
> print(dat)
                                   compound  experimental.system  value.reported
1  C=CCn1c(=O)c2cnc(Nc3ccc(N4C[C@@H]5C[C@H]4CN5CCF)cc3)nc2n1-c1cccc(C(C)(C)O)n1      MIA PaCa2 cells    6.00 to 7.00
2  C=CCn1c(=O)c2cnc(Nc3ccc(N4CC5CC(C4)N5C)cc3)nc2n1-c1ccc2oc(=O)n(CC)c2c1      MIA PaCa2 cells    5.30 to 5.70
3  C=CCn1c(=O)c2cnc(Nc3ccc(-n4cc(N(C)C)cn4)cc3)nc2n1-c1cccc(C(C)(C)O)n1      MIA PaCa2 cells    5.70 to 6.00

INPUT: Give MIA PaCa2 cells pIC50 for the following compound: C=CCn1c(=O)c2cnc(Nc3ccc(N(C)[C@H]4CN5CCC4CC5)cc3)nc2n1-c1cccc(C(C)(C)O)n1
OUTPUT: < 5.00

INPUT: Give MIA PaCa2 cells pIC50 for the following compound: C=CCn1c(=O)c2cnc(Nc3ccc(C(=O)N(C)C4CN5CCC4CC5)cc3)nc2n1-c1cccc(C(C)(C)O)n1 (stereo not shown)
OUTPUT: 6.00 to 7.00

INPUT: Give MIA PaCa2 cells pIC50 for the following compound: C=CCn1c(=O)c2cnc(Nc3ccc(N4CC5CC(CN(Cc6ccccc6)C5)C4)cc3)nc2n1-c1cccc(C(C)(C)O)n1
OUTPUT: 5.70 to 6.00

INPUT: Give MIA PaCa2 cells pIC50 for the following compound: C=CCn1c(=O)c2cnc(Nc3ccc(N4CC5CC(C4)N5CCO)cc3)nc2n1-c1cccc(C(C)(C)O)n1
OUTPUT: 6.00 to 7.00
